assay_target: Human CD33 R69G (human, UniProt P20138 18-259)
Sequence (P20138 18-259 R69G): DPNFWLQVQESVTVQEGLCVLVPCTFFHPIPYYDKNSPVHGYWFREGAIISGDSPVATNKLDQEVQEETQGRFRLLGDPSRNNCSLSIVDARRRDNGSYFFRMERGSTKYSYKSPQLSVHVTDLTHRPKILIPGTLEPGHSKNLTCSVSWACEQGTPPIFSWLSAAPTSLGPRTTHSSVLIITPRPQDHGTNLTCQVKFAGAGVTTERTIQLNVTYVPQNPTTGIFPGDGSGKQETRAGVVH
assay_method_text: SPR captured Fab
assay_metric: kon (M⁻¹ s⁻¹)
Expressed in M⁻¹ s⁻¹, but write only the number.

See these solved cases before continuing.
ADI-11815 Fab (Fab, V domains shown, Fab fragment; also called Ab7) VH: QVQLVQSGAEVKKPGASVKVSCKASGYTFGTYYMHWVRQAPGQGLEWMGIINPSRGSTVYAQKFQGRVTMTRDTSTSTVYMELSSLRSEDTAVYYCARGAGYDDEDMDVWGKGTTVTVSS VL: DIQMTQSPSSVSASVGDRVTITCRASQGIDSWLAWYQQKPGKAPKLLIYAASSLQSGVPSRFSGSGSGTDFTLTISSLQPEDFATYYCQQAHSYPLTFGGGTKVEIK	300000
ADI-11776 Fab (Fab, V domains shown, Fab fragment; also called Ab3; H76) VH: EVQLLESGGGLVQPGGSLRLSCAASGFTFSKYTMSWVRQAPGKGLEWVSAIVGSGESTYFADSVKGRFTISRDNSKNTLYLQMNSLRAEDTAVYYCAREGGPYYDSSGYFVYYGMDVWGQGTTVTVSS VL: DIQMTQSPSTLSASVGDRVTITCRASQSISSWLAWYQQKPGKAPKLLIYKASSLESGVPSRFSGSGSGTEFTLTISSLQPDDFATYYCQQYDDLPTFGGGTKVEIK	1.98e+06
ADI-10164 Fab (Fab, V domains shown, Fab fragment; also called Ab18) VH: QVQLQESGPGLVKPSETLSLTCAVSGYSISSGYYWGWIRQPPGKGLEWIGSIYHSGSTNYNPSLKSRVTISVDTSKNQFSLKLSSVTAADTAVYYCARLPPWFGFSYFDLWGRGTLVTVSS VL: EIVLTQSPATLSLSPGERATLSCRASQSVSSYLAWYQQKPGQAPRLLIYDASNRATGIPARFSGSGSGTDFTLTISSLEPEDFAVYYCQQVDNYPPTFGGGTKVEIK	308000
ADI-11825 Fab (Fab, V domains shown, Fab fragment; also called Ab25) VH: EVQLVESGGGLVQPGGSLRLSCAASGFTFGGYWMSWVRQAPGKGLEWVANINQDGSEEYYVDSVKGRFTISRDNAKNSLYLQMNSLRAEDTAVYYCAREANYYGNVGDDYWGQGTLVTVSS VL: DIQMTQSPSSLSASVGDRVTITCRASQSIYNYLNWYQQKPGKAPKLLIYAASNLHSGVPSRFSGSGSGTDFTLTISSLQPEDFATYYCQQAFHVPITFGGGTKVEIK	1.86e+06
ADI-10157 Fab (Fab, V domains shown, Fab fragment; also called Ab13) VH: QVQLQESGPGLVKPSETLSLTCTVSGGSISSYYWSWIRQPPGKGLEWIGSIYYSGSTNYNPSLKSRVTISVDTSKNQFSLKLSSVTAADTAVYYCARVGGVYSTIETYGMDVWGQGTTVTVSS VL: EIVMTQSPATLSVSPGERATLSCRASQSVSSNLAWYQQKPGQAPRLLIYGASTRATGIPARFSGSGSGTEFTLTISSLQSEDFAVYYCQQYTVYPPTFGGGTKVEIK	1.56e+06
ADI-11828 Fab (Fab, V domains shown, Fab fragment; also called Ab27) VH: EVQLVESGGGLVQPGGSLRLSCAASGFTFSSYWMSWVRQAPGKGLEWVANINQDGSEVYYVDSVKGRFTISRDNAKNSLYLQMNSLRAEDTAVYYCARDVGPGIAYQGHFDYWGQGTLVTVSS VL: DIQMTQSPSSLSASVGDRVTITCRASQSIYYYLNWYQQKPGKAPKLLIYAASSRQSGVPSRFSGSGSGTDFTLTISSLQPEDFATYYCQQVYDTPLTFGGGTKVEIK	1.16e+06

## Input // query kon value for entry ADI-11809 Fab (Fab, V domains shown, Fab fragment; also called Ab6) VH: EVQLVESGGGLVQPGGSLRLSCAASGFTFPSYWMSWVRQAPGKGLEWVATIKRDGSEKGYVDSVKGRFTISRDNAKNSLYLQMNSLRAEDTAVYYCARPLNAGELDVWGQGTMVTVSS VL: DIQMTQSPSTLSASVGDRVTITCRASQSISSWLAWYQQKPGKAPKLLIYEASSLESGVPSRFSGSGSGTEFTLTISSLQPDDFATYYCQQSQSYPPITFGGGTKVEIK
## Output 815000

## Input // query kon value for entry ADI-10161 Fab (Fab, V domains shown, Fab fragment; also called Ab16) VH: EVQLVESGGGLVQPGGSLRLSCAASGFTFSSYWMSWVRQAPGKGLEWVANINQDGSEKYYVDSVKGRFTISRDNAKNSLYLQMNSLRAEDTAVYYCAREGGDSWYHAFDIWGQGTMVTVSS VL: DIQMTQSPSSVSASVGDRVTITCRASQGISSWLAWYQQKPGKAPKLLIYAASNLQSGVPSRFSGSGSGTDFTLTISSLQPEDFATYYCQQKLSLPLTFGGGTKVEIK
## Output 629000

## Input // query kon value for entry ADI-11835 Fab (Fab, V domains shown, Fab fragment; also called Ab10; 135 (so in the source)) VH: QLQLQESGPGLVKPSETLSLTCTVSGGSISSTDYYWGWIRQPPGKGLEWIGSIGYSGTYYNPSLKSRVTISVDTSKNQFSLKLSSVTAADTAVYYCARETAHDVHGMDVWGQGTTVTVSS VL: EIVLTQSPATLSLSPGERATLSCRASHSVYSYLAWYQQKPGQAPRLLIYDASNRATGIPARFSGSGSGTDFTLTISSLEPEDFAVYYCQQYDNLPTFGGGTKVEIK
## Output 3.07e+06

## Input // query kon value for entry ADI-11826 Fab (Fab, V domains shown, Fab fragment; also called Ab26) VH: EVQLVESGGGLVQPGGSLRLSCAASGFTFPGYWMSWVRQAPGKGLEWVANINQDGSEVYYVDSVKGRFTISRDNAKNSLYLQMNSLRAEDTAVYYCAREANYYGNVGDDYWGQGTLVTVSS VL: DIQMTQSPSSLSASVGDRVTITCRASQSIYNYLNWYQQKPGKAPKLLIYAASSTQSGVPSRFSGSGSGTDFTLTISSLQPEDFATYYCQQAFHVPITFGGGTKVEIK
## Output 1.89e+06
